Molecular target: UniProt:P0DMS8
Sequence (P0DMS8 whole entry): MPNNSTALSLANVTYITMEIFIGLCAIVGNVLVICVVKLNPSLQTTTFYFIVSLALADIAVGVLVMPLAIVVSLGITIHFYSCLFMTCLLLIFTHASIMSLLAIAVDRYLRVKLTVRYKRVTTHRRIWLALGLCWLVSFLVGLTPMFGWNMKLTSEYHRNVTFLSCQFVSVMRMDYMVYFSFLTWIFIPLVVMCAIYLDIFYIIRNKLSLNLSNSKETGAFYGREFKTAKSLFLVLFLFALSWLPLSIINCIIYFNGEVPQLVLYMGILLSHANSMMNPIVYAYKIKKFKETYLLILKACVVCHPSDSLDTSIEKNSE
Assay: Displacement of [3H] NECA from human recombinant A3 receptor expressed in HeLa cells incubated for 180 mins by radioligand binding competition assay
pKi: −log10 of the molar value.

| chem.smiles | pKi |
| --- | --- |
| Cn1cc(-c2cnc(N)n3nc(-c4ccccn4)nc23)ccc1=O | < 5.00 |
| Cc1ccc(-c2nc3c(-c4ccc(=O)n(C)c4)cnc(N)n3n2)o1 | 5.53 |
| Cc1cnc(-c2nc3c(-c4ccc(=O)n(C)c4)cnc(N)n3n2)s1 | 5.53 |
| Cn1nccc1-c1nc2c(-c3ccc(=O)n(C)c3)cnc(N)n2n1 | < 5.00 |
| Cn1cc(-c2cnc(N)nc2-c2ccco2)ccc1=O | < 5.00 |
| Cn1ccc(-c2nc3c(-c4ccc(=O)n(C)c4)cnc(N)n3n2)n1 | < 5.00 |
| Cc1cccc(-c2nc3c(-c4ccc(=O)n(C)c4)cnc(N)n3n2)n1 | < 5.00 |
| Cc1csc(-c2nc3c(-c4ccc(=O)n(C)c4)cnc(N)n3n2)n1 | < 5.00 |
| Cn1cc(-c2cnc(N)n3nc(-c4nccs4)nc23)ccc1=O | < 5.00 |

###

Biological target: Adenosine receptor A1 (Homo sapiens, UniProt P30542)
Sequence (P30542 whole entry): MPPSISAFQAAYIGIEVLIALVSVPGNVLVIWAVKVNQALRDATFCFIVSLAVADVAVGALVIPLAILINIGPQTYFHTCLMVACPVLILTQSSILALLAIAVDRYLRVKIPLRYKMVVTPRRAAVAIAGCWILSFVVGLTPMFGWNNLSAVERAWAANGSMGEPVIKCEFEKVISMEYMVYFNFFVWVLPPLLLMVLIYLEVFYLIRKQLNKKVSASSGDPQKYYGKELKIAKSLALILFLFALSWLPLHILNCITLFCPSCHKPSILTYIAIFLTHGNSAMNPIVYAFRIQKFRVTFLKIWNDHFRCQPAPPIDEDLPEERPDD
Experiment: Displacement of [3H] DPCPX from human recombinant A1 adenosine receptor expressed in CHO cells incubated for 60 mins by radioligand binding competition assay
measure.name: log10(Ki) (log10 of the value in nM)

| chem.smiles | log10(Ki) |
| --- | --- |
| Cc1cnc(-c2nc3c(-c4ccc(=O)n(C)c4)cnc(N)n3n2)s1 | 1.34 |
| Cn1nccc1-c1nc2c(-c3ccc(=O)n(C)c3)cnc(N)n2n1 | 3.47 |
| Cn1cc(-c2cnc(N)nc2-c2ccco2)ccc1=O | 1.95 |
| Cn1cc(-c2cnc(N)n3nc(-c4ccccn4)nc23)ccc1=O | 1.58 |
| Cn1ccc(-c2nc3c(-c4ccc(=O)n(C)c4)cnc(N)n3n2)n1 | 2.86 |
| Cc1cccc(-c2nc3c(-c4ccc(=O)n(C)c4)cnc(N)n3n2)n1 | 3.24 |
| Cc1csc(-c2nc3c(-c4ccc(=O)n(C)c4)cnc(N)n3n2)n1 | 2.97 |
| Cn1cc(-c2cnc(N)n3nc(-c4nccs4)nc23)ccc1=O | 1.89 |
| Cn1cc(-c2cnc(N)n3nc(-c4ccco4)nc23)ccc1=O | 1.38 |
| Cc1ccc(-c2nc3c(-c4ccc(=O)n(C)c4)cnc(N)n3n2)o1 | 1.95 |
